- Test system: MDA-MB-231
- experiment notes: Cytotoxicity against human MDA-MB-231 cells after 48 hrs by sulforhodamine B assay
- Assay type: functional
- experimental context: MDA-MB-231, 48 h
GI50 values for the molecules below.

Request: Query: GI50; subject: COC(=O)[C@@H]1C[C@@]2(Br)c3cc(Br)ccc3N3C(=N)C(C)(C)N1[C@H]32
Result: > 100 µM

Request: And for COC(=O)[C@@H]1C[C@@]2(Br)c3cc(Br)ccc3N3C(=N)C4(CCCCC4)N1[C@H]32 ?
Result: 6.21 µM

----------
- Test system: A549
- experiment notes: Cytotoxicity against human A549 cells after 48 hrs by sulforhodamine B assay
- Format: functional
- experimental context: A549, 48 h
observable: GI50 (µM)
# output: bare number, implied unit µM

Request: Find the measured GI50: item COC(=O)[C@@H]1C[C@@]2(Br)c3cc(Br)ccc3N3C(=N)C4(CCCCC4)N1[C@H]32 , target or system A549.
Result: 7.24

For the next question, use this compound.
Request: Find the measured GI50: item COC(=O)[C@@H]1C[C@H]2c3ccccc3N3C(=N)C4(CCCCC4)N1[C@@H]23 , target or system A549.
Result: 9.23
